Target: VEGF-A165/NRP-1 complex (Homo sapiens, UniProt O14786)
Construct: purchased R&D Systems
Sequence (O14786 22-641 limits assumed): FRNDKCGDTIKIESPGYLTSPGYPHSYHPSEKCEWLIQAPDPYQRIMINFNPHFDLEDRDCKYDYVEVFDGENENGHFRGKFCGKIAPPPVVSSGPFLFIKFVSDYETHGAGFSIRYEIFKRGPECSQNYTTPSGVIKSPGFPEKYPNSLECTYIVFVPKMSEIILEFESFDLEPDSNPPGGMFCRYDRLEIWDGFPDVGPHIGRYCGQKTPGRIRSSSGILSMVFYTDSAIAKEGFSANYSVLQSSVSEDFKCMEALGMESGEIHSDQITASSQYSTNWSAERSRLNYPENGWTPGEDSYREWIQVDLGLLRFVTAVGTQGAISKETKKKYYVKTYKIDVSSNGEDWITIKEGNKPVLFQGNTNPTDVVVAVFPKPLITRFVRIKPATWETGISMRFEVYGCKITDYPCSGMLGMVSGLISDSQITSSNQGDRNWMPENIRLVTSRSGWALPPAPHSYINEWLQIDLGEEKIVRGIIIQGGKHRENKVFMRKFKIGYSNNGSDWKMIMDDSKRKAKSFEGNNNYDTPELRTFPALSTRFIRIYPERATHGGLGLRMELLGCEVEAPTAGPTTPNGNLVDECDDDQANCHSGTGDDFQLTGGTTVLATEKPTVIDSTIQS
Assay: Competitive ELISA-like assay, inhibition of bt-VEGF-A165 binding to immobilized NRP-1
Details: recombinant human NRP-1, bt-VEGF-A165, chemiluminescence; read-out: IC50, VEGF-A165/NRP-1 complex inhibitory effect
Starred links: 1 amine or outer side, 2 acyl side, 3 side chain; linkers in the order of their positions; H or OH if unused. Non-standard residues stand in square brackets, D forms with d. Residues, ends and D or L forms follow the SMILES beside them. Groups on a side chain read outwards from the residue. ξ: configuration not given here. *: point of attachment. Oic(3aξ,7aξ) = O=C(O)[C@@H]1CC2CCCCC2N1; X1 = N=C(N)NCCCC[C@H](N)CN*; X3 = N=C(N)NCCC[C@H](N)CN*; X2 = N=C(N)NCC[C@H](N)CN*; Orn = NCCC[C@H](N)C(=O)O; Dab = NCC[C@H](N)C(=O)O; CO = O=C([*:1])[*:2]
property label: IC50 (µM)

N=C(N)NCCC[C@H](NC(=O)[C@@H]1CC2CCCCC2N1C(=O)[C@H](CCN)NC(=O)NC[C@@H](N)CCCCNC(=O)[C@@H](N)CCNC(=N)N)C(=O)O (stereo partly drawn) = 1.2
N=C(N)NCCC[C@H](NC(=O)[C@@H]1CC2CCCCC2N1C(=O)[C@H](CCN)NC(=O)NC[C@@H](N)CCCNC(=O)NC[C@@H](N)CNC(=N)N)C(=O)O (stereo partly drawn) = 1.8
N=C(N)NCCC[C@H](N)CNC(=O)NCCC[C@H](N)C(=O)N[C@@H](CCN)C(=O)N1C2CCCCC2C[C@H]1C(=O)N[C@@H](CCCNC(=N)N)C(=O)O (stereo partly drawn) [Compound 5] (H-[Orn]([CO-X3])[Dab][Oic(3aξ,7aξ)]R-OH) = 0.36
N=C(N)NCCCC[C@H](N)CNC(=O)NCC[C@H](N)C(=O)N[C@@H](CCN)C(=O)N1C2CCCCC2C[C@H]1C(=O)N[C@@H](CCCNC(=N)N)C(=O)O (stereo partly drawn) [Compound 6, H-Dab(hArg^U)Dab-Oic-Arg-OH] (H-[Dab]([CO-X1])[Dab][Oic(3aξ,7aξ)]R-OH) = 0.19

[1] N=C(N)NCCC[C@H](NC(=O)[C@@H]1CC2CCCCC2N1C(=O)[C@H](CCN)NC(=O)NC[C@@H](N)CCNC(=O)NC[C@@H](N)CCNC(=N)N)C(=O)O (stereo partly drawn)
[2] N=C(N)NCCC[C@H](NC(=O)[C@@H]1CC2CCCCC2N1C(=O)[C@H](CCN)NC(=O)[C@@H](N)CCCCNC(=O)NC[C@@H](N)CCNC(=N)N)C(=O)O (stereo partly drawn) [Compound 4] (H-K([CO-X2])[Dab][Oic(3aξ,7aξ)]R-OH)
[in] Could you tell me which of these two has the smaller IC50 figure? First: 1 Second: 2 Reply with the label of the item you choose.
[out] 2
